# experiment_description: ATG_ISRE_CIS: Attagene CIS-FACTORIAL HepG2 Assay for human Interferon Regulatory Factor 1 (IRF1) binding to an Interferon-Stimulated Response Element (ISRE) (AID 2282948)
# experimental_context: HepG2 ISRE cis-reporter (Attagene), mRNA transcription readout; actives raise or lower the signal
Active and inactive are the calls of the source. The calls were made as follows: active = hit-call score of the fitted dose curve at least 0.9, where 1 is the maximum; inactive = score below 0.9.
Outcomes: active, inactive

compound | discrete_label
CC(C)CCCC(C)CCO (centres undefined) | inactive
C=CC(=O)OCC(F)(F)C(F)(F)C(F)(F)C(F)(F)C(F)(F)C(F)(F)C(F)(F)C(F)F | active
O=C(c1ccccc1)c1ccc(O)cc1O | inactive
Nc1c(Br)cc([N+](=O)[O-])cc1Br | inactive
